Tested on: cholinesterase
Assay: Visual detection with the cholinesterase detection device after on-column NBS oxidation (Example 1)
Settings: Table 1, tested in the same manner as Example 1 (NBS oxidation)
propertyName: Detection Level (ppb)
Reply with just the number (in ppb).

As a guide, the following entries are already answered.
CCOP(=S)(OCC)SCSC(C)(C)C : 10
CCOP(=S)(OCC)Oc1ccc(=O)n(-c2ccccc2)n1 : 1
CCOP(=S)(OCC)Oc1cnc2ccccc2n1 : 0.1
CCOP(=O)(OCC)O/C(=C\Cl)c1ccc(Cl)cc1Cl : 40
CCOP(=S)(OCC)SCn1nnc2ccccc2c1=O : 1

The measured Detection Level (ppb) associated with "CCOP(=S)(OCC)SCn1c(=O)oc2cc(Cl)ccc21" reads 6

The measured Detection Level (ppb) associated with "CCOP(=S)(OCC)Oc1nc(Cl)c(Cl)cc1Cl" reads 0.2

The measured Detection Level (ppb) associated with CCOP(=S)(OCC)Oc1ccc([S+](C)[O-])cc1 (centres unmarked) reads 100

The measured Detection Level (ppb) associated with CCOP(=S)(NC(C)CC)Oc1cc(C)ccc1[N+](=O)[O-] (centres unmarked) reads 100

The measured Detection Level (ppb) associated with "CCOP(=S)(OCC)Oc1cc(-c2ccccc2)on1" reads 0.2

The measured Detection Level (ppb) associated with "CCOP(=S)(OCC)SCSP(=S)(OCC)OCC" reads 10

The measured Detection Level (ppb) associated with CCOP(=S)(Oc1ccc([N+](=O)[O-])cc1)c1ccccc1 (centres unmarked) reads 40

The measured Detection Level (ppb) associated with "CCCSP(=O)(OCC)SCCC" reads 100

The measured Detection Level (ppb) associated with COP(=O)(OC)O/C(=C\Cl)c1ccc(Cl)cc1Cl [dimethylvinphos(Z)] reads 100

The measured Detection Level (ppb) associated with "CCN(CC)c1nc(C)cc(OP(=S)(OC)OC)n1" reads 20

The measured Detection Level (ppb) associated with "COP(=S)(OC)SCn1nnc2ccccc2c1=O" reads 8

The measured Detection Level (ppb) associated with "COP(=S)(OC)Oc1nc(Cl)c(Cl)cc1Cl" reads 1
